# Lookup of reported PBM E-score keyed by entry
# assayed-system: Zap1 (UniProt P47043)
# Sequence: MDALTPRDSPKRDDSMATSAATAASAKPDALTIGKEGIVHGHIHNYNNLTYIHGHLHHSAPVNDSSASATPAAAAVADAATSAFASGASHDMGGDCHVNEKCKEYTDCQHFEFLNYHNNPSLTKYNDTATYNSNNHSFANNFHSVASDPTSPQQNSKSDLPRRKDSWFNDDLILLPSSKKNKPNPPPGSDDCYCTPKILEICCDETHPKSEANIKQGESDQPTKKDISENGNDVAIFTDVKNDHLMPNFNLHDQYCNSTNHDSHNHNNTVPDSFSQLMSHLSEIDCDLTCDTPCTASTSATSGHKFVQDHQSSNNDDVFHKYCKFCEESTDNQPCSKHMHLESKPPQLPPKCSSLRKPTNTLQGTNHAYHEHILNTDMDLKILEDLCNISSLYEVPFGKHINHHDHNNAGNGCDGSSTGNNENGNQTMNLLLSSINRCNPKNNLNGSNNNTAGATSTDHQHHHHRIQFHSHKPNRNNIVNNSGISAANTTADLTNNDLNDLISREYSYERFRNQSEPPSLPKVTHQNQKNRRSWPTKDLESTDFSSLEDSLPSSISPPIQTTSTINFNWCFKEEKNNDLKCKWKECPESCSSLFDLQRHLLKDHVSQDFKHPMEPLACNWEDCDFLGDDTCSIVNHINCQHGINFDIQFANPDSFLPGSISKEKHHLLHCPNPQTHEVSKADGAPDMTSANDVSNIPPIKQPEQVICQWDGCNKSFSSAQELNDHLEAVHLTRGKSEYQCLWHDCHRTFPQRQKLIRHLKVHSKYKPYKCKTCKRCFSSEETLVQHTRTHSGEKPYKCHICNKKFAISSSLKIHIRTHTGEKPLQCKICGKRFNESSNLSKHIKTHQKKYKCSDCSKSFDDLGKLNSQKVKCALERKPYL
# method-description: PBM E-score (8-mer binding enrichment) (E-score (-0.5 to 0.5)); higher = stronger / more preferred TF binding
# condition-info: protein concentration: 200 nM; construct: GST-full length
Whole data set: some 33,000 sequences, median “E-score (-0.5 to 0.5)” near -0.021, cut for the highest 2% near 0.32. The entries come from a sample that favours the highest values as a whole.
Form rule: numeric answer, no unit written next to it.

CCCTTGAC ... 0.193
ACTACCCC ... 0.215
CTGAATGA ... 0.0581
ATGACCTC ... 0.442

Input: Report PBM E-score for "TCCACCCA" tested on Zap1 (UniProt P47043).
Output: -0.233

Input: Hello, I am looking for reported PBM E-score with Zap1 (UniProt P47043) for "ATTAACAC" . Could you help?
Output: 0.172

Input: Record lookup: for Zap1 (UniProt P47043), what PBM E-score belongs to "TCCTTGAA" ?
Output: 0.158

Input: What PBM E-score appears in the records for this sequence with Zap1 (UniProt P47043)? "ACCTTGGG"
Output: 0.327

Input: Please provide the recorded PBM E-score for "AATTAATA" , tested on Zap1 (UniProt P47043).
Output: 0.332

###

# assayed-system: Zap1 (UniProt P47043)
# Sequence: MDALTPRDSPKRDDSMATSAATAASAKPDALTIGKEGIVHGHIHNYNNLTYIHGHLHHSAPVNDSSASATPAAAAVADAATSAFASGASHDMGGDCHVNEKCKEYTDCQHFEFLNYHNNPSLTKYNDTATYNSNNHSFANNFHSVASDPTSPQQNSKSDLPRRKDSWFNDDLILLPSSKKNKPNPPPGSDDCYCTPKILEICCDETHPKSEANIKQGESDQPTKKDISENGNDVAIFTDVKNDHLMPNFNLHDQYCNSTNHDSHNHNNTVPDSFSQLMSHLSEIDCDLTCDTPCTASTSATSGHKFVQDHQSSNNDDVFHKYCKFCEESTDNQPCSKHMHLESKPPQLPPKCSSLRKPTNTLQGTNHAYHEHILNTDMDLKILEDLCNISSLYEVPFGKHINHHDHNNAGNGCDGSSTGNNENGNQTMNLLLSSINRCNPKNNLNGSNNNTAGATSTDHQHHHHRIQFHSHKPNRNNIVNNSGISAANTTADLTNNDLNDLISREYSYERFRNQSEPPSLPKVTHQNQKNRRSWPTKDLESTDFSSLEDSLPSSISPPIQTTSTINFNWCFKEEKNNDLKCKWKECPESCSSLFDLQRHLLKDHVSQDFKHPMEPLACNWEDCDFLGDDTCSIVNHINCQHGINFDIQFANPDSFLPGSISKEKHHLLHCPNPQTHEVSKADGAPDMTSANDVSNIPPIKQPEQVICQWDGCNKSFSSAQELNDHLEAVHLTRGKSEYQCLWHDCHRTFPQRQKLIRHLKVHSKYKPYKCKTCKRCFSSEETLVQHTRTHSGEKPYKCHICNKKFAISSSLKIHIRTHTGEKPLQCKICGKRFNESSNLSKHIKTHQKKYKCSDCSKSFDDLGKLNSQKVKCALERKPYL
# method-description: PBM E-score (8-mer binding enrichment) (E-score (-0.5 to 0.5)); higher = stronger / more preferred TF binding
# condition-info: protein concentration: 200 nM; construct: GST-full length
Over roughly 33,000 sequences, “E-score (-0.5 to 0.5)” has its median near -0.021; the highest 2% begin near 0.32. The entries come from a sample that favours the highest values as a whole.
Please note: fulfilled applies when PBM E-score is 0.2 or greater, and not fulfilled applies otherwise.

CGAATGAG ... not fulfilled

Input: Assess whether reported PBM E-score for "AAAAGCGT" sits at 0.2 or higher.
Output: not fulfilled

Input: Reported PBM E-score reaches at least 0.2 for "CAAGGGCC" ?
Output: not fulfilled

Input: Record "ACACCTAA" ; criterion: PBM E-score no lower than 0.2. Met?
Output: not fulfilled
